Attribute: growth
- Test system: ACHN renal
- experiment-summary: NCI-60 one-dose screen, 48 h (100 = growth as untreated, 0 = no growth, -100 = all killed)
- test-settings: 10 µM unless noted
The panel holds about 83,000 compounds, 20% with a hit somewhere; the sample as a whole holds those more often. Calls of active or inactive are those of the source. Rule for the calls: active = growth percent below 10; inactive = the rest.

{"compound": "Cc1cc2ccccn2c1C(=O)c1ccc(C(=O)c2ccccc2)cc1", "growth": "93% (inactive)"}
{"compound": "COc1cccc(/C=N\\NC(=O)c2ccncc2)c1O", "growth": "31.2% (inactive)"}
{"compound": "COc1ccc(NC(=O)[C@@H]2C[C@H]2c2ccccc2)c(C(N)=O)c1", "growth": "102% (inactive)"}
{"compound": "C=C(CN1CCc2c([nH]c3ccccc23)C1)c1ccc(C(=O)Nc2ccon2)cc1", "growth": "99% (inactive)"}
{"compound": "COc1ccc(OC)c2c1CCC1(C2)NC(=O)NC1=O (stereo not drawn)", "growth": "103% (inactive)"}
{"compound": "O=C(Nc1ccccc1)P(=O)(O)c1ccccc1", "growth": "93.9% (inactive)"}
{"compound": "CNNc1ncnc2c1cnn2-c1ccc(S(N)(=O)=O)cc1", "growth": "93% (inactive)"}
{"compound": "OC(c1ccccc1)C(NCc1ccccc1)c1ccccc1 (stereo not drawn)", "growth": "99.5% (inactive)"}
{"compound": "COc1cc(Cl)cc(-c2nn(-c3cccc(NC(=O)c4cc(C(F)(F)F)cc(C(F)(F)F)c4)c3)cc2-c2ccncc2)c1", "growth": "58.2% (inactive)"}
{"compound": "O=CNc1ccc2c(c1)Cc1cc([N+](=O)[O-])ccc1-2", "growth": "56.6% (inactive)"}
{"compound": "Cc1ccc(/C=C(/C#N)n2nnc3ncccc32)cc1", "growth": "0.614% (active)"}
{"compound": "CCCCCCCCCCCCCCCCCC1=NC(C)(CO)CO1 (stereo not drawn)", "growth": "91% (inactive)"}
{"compound": "O=C(NC1CCCCC1)c1ccc(Nc2ncnc3c2cnn3-c2ccccc2)cc1", "growth": "54.3% (inactive)"}
{"compound": "Oc1c(N=Nc2nn[nH]n2)ccc2ccccc12", "growth": "86.8% (inactive)"}
{"compound": "N#Cc1c(-c2ccc(F)cc2)n2c(nc1=O)SC(=O)C2=O", "growth": "90.3% (inactive)"}
{"compound": "O=C(C(=O)N1CCOCC1)c1cn(CCCn2cc(C(=O)C(=O)N3CCOCC3)c3ccccc32)c2ccccc12", "growth": "100% (inactive)"}
{"compound": "COc1cccc2c1C(=O)c1c(O)c3c(c(O)c1C2=O)C[C@@](O)(C(C)=O)C[C@@H]3O[C@H]1C[C@H](N)[C@H](O)[C@H](C)O1", "growth": "-23.1% (active)"}
{"compound": "O=C1OC(Oc2ccccc2)(c2ccccc2)c2ccccc21 (stereo not drawn)", "growth": "102% (inactive)"}
{"compound": "O=C(CNC(=O)c1cccc2ccccc12)Nc1ccccc1Oc1ccc(O)cc1", "growth": "43.8% [5 µM] (inactive)"}
{"compound": "COc1ccc(C2CC(c3ccc(Nc4ccnc5cc(Cl)ccc45)cc3)=NN2C(C)=O)cc1 (stereo not drawn)", "growth": "54.8% (inactive)"}
{"compound": "c1ccc(-c2n(Cc3ccc4ccccc4c3)cc[n+]2Cc2ccc3ccccc3c2)cc1", "growth": "13.3% (inactive)"}
{"compound": "c1ccc(-c2oc(-c3ccccc3)c3ccccc23)cc1", "growth": "104% (inactive)"}
{"compound": "O=C(NCCNC(=O)Oc1cccc2ccccc12)Oc1cccc2ccccc12", "growth": "85.3% (inactive)"}
{"compound": "Cc1ccc(-c2c3c(N)c4c(nc3nc3c2c(C)nn3-c2ccccc2)CCC4)cc1", "growth": "12% (inactive)"}
{"compound": "CC[N+](CCCCCCCCCC[N+](CC)(c1ccccn1)c1ccccn1)(c1ccccn1)c1ccccn1", "growth": "20.9% (inactive)"}
{"compound": "COc1ccc(C(=O)/C=C/c2cccc(Nc3ccnc4cc(Cl)ccc34)c2)cc1", "growth": "29.6% (inactive)"}
{"compound": "Cc1ccc(N/N=C(/C(=O)c2ccc(Cl)cc2)c2nc(C)cc(=O)[nH]2)cc1", "growth": "99.1% (inactive)"}
{"compound": "O=C(O)CCNS(=O)(=O)c1ccc(-c2ccccc2)cc1", "growth": "97.9% (inactive)"}
{"compound": "COC(=O)C1=CCC(n2cnc3c(N)ncnc32)O1 (stereo not drawn)", "growth": "110% (inactive)"}
{"compound": "N#Cc1c(-c2ccccc2)cc(-c2ccccc2)n(CCCC(=O)O)c1=O", "growth": "97.8% (inactive)"}
{"compound": "O=C1NC(=S)S/C1=C\\c1cc(Br)ccc1O", "growth": "93.5% (inactive)"}
{"compound": "O=C1/C(=C/c2ccc(F)cc2)Cc2ccccc21", "growth": "98.2% (inactive)"}
{"compound": "NS(=O)(=O)c1ccc(N2CC(c3nc4ccccc4[nH]3)CC2=O)cc1 (stereo not drawn)", "growth": "91.9% (inactive)"}
{"compound": "C(=C1c2ccccc2-c2ccccc21)c1ccccn1", "growth": "96.5% (inactive)"}
{"compound": "O=C1C=CC(=O)N1c1ccccn1", "growth": "97.4% (inactive)"}
{"compound": "O=C1C(=O)c2c(nc3ccc(Cl)cn23)-c2ccccc21", "growth": "-100% (active)"}
{"compound": "CCOC1Oc2ccccc2C(=O)/C1=N/c1nccs1 (stereo not drawn)", "growth": "84.9% (inactive)"}
{"compound": "CC(C)Sc1nc(-c2ccc(Br)cc2)c(C#N)c(N2CCCCC2)n1", "growth": "101% (inactive)"}
{"compound": "COc1cc(/C=C/C(=O)C(C(=O)/C=C/c2ccc(OC(=O)CCNc3nnc(C)s3)c(OC)c2)C(=O)CCNc2nnc(C)s2)ccc1OC(=O)CCNc1nnc(C)s1", "growth": "-21.4% (active)"}
{"compound": "Cc1ccc(C2=Nc3c(ccc4c(C)c(C)c(=O)oc34)OC2)cc1", "growth": "99.1% (inactive)"}
{"compound": "N#Cc1c(-c2ccccc2)cc(-c2ccccc2)n(CCCCC(=O)O)c1=O", "growth": "100% (inactive)"}
{"compound": "CCOC(=O)C1=CCC(n2cc(C)c(=O)[nH]c2=O)O1 (stereo not drawn)", "growth": "103% (inactive)"}
{"compound": "CCCCN1c2nc3ccccc3cc2Sc2cc3ccccc3nc21", "growth": "107% (inactive)"}

Entry source: PubChem BioAssay (NCI)
